# MEASUREMENT TARGET: recombinant human LTA4 hydrolase (rhLTA4H) (Homo sapiens)
# Sequence (P09960 whole entry): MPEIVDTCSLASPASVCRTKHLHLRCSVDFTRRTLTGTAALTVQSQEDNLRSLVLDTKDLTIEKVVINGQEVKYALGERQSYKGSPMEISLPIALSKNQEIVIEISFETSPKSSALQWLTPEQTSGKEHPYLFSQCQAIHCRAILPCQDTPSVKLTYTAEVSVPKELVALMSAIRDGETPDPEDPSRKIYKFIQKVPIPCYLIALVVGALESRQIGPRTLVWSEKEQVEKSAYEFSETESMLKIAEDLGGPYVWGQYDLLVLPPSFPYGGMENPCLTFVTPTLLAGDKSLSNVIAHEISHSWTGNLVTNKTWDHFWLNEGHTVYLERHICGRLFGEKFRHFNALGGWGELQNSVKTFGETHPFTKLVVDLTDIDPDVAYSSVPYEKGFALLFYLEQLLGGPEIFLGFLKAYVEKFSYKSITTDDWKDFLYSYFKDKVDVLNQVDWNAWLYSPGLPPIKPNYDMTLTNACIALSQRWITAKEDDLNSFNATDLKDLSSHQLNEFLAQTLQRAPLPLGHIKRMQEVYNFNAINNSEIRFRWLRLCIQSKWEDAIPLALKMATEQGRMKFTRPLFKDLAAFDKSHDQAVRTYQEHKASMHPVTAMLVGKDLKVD
# ASSAY REMARKS: Recombinant Human LTA4 Hydrolase Assay for LTA4 Hydrolase Inhibitor Activity
# CONDITION CONTEXT: average of results obtained; LTB4 quantified by enzyme-linked immunoassay
Structures can show the parent of a compound that is named as a salt.
PROPERTY: log10(Ki) (log10 of the value in nM)
Log10 applied to Ki; unit prior to transform: nM.

List reported log10(Ki) for each of these compounds:
1. CS(=O)(=O)N1C[C@@H]2C[C@H]1CN2CCc1ccc(Oc2nc3ccc(Cl)cc3s2)cc1 [Example 238]
2. CC(C)(C)OC(=O)NC1(C(=O)N2C[C@@H]3C[C@H]2CN3CCOc2ccc(Oc3nc4ccccc4s3)cc2)CC1 [Example 66]
3. O=C(c1cnccn1)N1CC2CN(Cc3ccc(Oc4nc5ccccc5s4)cc3)CC2C1 (stereo not drawn) [Example 105]
4. CC(=O)N1[C@@H]2CC[C@H]1C[C@H](NCCc1ccc(Oc3nc4c(Cl)cccc4s3)cc1)C2 [Example 275]
5. COCC(=O)N1C[C@@H]2C[C@H]1CN2Cc1ccc(Oc2nc3ccccc3s2)cc1 [Example 41]
6. O=C(c1ccco1)N1CC2CN(Cc3ccc(Oc4nc5ccccc5s4)cc3)CC2C1 (stereo not drawn) [Example 106]
7. c1ccc2sc(Oc3ccc(CN4CCC5CNCC5C4)cc3)nc2c1 (stereo not drawn) [Example 85, hydrochloride]
8. O=S(=O)(C1CC1)N1CC2CN(Cc3ccc(Oc4nc5ccccc5s4)cc3)CC2C1 (stereo not drawn) [Example 126]

Response given:
1. 2.81
2. 2.28
3. 1.84
4. 2.42
5. 1.18
6. 0.48
7. 2.65
8. 1.23

Provide each entry's log10(Ki) from the list below.
1. O=C(C1CCOC1)N1CC2CN(Cc3ccc(Oc4nc5ccccc5s4)cc3)CC2C1 (stereo not drawn) [Example 102]
2. CC(=O)N[C@@H]1C[C@H]2CC[C@@H](C1)N2CCOc1ccc(Oc2nc3ccc(F)cc3s2)cc1 [Example 227]
3. NC(=O)N1C[C@H]2C[C@@H]1CN2Cc1ccc(Oc2nc3ccccc3s2)cc1 [Example 34]
4. CC(=O)N[C@H]1C[C@H]2CC[C@@H](C1)N2Cc1ccc(Cc2nc3ccccc3o2)cc1 [Example 6]

Response given:
1.66
0.90
0.85
1.70

Give log10(Ki) for each listed item.
1. NC(=O)N1C[C@@H]2C[C@H]1CN2CCc1cccc(Oc2nc3ccccc3s2)c1 [Example 39]
2. O=C(c1cccs1)N1C[C@@H]2C[C@H]1CN2Cc1ccc(Oc2nc3ccccc3s2)cc1 [Example 61]
3. CS(=O)(=O)N[C@@H]1C[C@H]2CC[C@@H](C1)N2CCc1ccc(Oc2nc3ccc(F)cc3s2)cc1 [Example 231]
4. CC(=O)N1C[C@@H]2C[C@H]1CN2Cc1ccc(Oc2nc3cc(F)ccc3s2)cc1 [Example 170]
5. CS(=O)(=O)N1C[C@@H]2C[C@H]1CN2CCc1cccc(Oc2nc3ccccc3s2)c1 [Example 48]
6. CC(=O)N1CC2CCC(C1)N2Cc1ccc(Oc2nc3ccccc3s2)cc1F [Example 77]
7. CC(=O)N1[C@@H]2CC[C@H]1C[C@H](NCCOc1ccc(Oc3nc4ccc(Cl)cc4s3)cc1)C2 [Example 268]

Response given:
2.00
1.43
1.23
1.95
3.07
1.08
2.56

Please state, for each entry, its recorded log10(Ki).
1. NC(=O)N1C[C@H]2C[C@@H]1CN2CCc1ccc(Oc2nc3cc(F)ccc3s2)cc1 [Example 244]
2. NC(=O)N1[C@@H]2CC[C@H]1C[C@@H](NCc1ccc(Oc3nc4cccc(F)c4s3)cc1)C2 [Example 226]
3. CC(=O)N1CC2CCN(Cc3ccc(Oc4nc5ccccc5s4)cc3)CC2C1 (stereo not drawn) [Example 90]
4. CC(=O)N1C[C@H]2C[C@@H]1CN2CCc1ccc(Oc2nc3cc(F)ccc3s2)cc1 [Example 235]
5. Cn1ccc(S(=O)(=O)N2CC3CN(Cc4ccc(Oc5nc6ccccc6s5)cc4)CC3C2)c1 (stereo not drawn) [Example 123]
6. COC(=O)CCCN1CC2CN(Cc3ccc(Oc4nc5ccccc5s4)cc3)CC2C1 (stereo not drawn) [Example 156]

Response given:
1. 1.08
2. 1.95
3. 1.32
4. 1.36
5. 1.99
6. 1.67

Look up log10(Ki) for the entries below, preserving their order.
1. Cc1ccc2sc(Oc3ccc(OCCN4C[C@@H]5C[C@H]4CN5S(C)(=O)=O)cc3)nc2c1 [Example 255]
2. O=C(N1C[C@@H]2C[C@H]1CN2CCc1cccc(Oc2nc3ccccc3s2)c1)C1(O)CC1 [Example 18]

Response given:
[2.44, 1.82]
